Hey, just so you know, these numbers are from paper PMC12040169.

Assay: in vitro
Details: human, hela cells, % viability
Reported viability at 28.5 h, 10 µM values for the following compounds.
Please reply with the bare figure in % and do not write the unit itself.

Examples with their reported viability at 28.5 h, 10 µM follow.
INSERT INTO assay_data (compound, unitofmeasurement, recordedvalue) VALUES
  ('O=C1CNC(=O)C2(C/C=C/C[C@H]3COCC[C@@H]3N1)CCN(C(=O)CCc1cccnc1)CC2 [CBK292051]', '%', 107),
  ('Cc1nn(C)c2c1c(=O)n(C)c(=O)n2C [CBK026140]', '%', 89.2),
  ('CCCN1CCCC(c2cccc(O)c2)C1 (centres unmarked) [CBK016405B]', '%', 92.6),
  ('CN(C)S(=O)(=O)NCc1ccc2c(c1)OCO2 [CBK264364]', '%', 108),
  ('CC(CSSCC(C)C(=O)O)C(=O)O (centres unmarked) [CBK260940]', '%', 96.7),
  ('O=C(CN1C(=O)[C@H]2CCCN2C(=O)c2ccccc21)NCC1CC1 [CBK282853]', '%', 87.6),
  ('COc1ccc(CN(CCN(C)C)C(=O)NCc2ccc(Cl)cc2)cc1OC [CBK159303]', '%', 87.7),
  ('Cc1ccc2c(c1)nc(CNC(=O)NCCc1nc(C)no1)n2C [CBK305552]', '%', 98.8);

Inquiry: Give the reported viability at 28.5 h, 10 µM for this compound. CC(=O)c1ccc(NC(=O)CC2SC(=N)NC2=O)cc1 (centres unmarked) [CBK265625]
Reply text: 83.9

Inquiry: Using known records, supply viability at 28.5 h, 10 µM for CC(C)[C@H](CO)NC(=O)c1cnc(-c2ccccc2)c(-c2ccncc2)c1 [CBK036691]
Reply text: 115
